Target: MMP-7 (Homo sapiens)
Construct: purchased SIGMA CC1059
Sequence (P09237 95-267): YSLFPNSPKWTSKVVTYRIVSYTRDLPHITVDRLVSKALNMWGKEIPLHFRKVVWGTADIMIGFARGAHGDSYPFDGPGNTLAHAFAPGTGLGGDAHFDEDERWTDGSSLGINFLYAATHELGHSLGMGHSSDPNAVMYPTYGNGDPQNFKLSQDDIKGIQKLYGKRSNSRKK
Assay: FRET peptide cleavage efficiency with MMP-7 (standard pH 7.5; also pH 6.5)
Assay type: biochemical
Settings: t = 15 min; standard conditions (Table 8)
Square brackets hold non-standard residues; d marks the D form. Ends that are not written are not given here. Tyr(3-NO2) = N[C@@H](Cc1ccc(O)c([N+](=O)[O-])c1)C(=O)O; Nle = CCCC[C@H](N)C(=O)O; 2Abz = Nc1ccccc1C(=O)O
# label = Y if % cleavage MMP-7 t = 15 min >= 20% else N

substance | discrete_label
RGRRVANLVG ([2Abz]RGRRVANLVG[Tyr(3-NO2)]-NH2) [LNK033] | Y
SGRVYMLQG ([2Abz]SGRVYMLQG[Tyr(3-NO2)]-NH2) [LNK044] | N
SGRVAPY-Nle-LQG ([2Abz]SGRVAPY[Nle]LQG[Tyr(3-NO2)]-NH2) [LNK043] | Y
RGRKSPY-Nle-LQG ([2Abz]RGRKSPY[Nle]LQG[Tyr(3-NO2)]-NH2) [LNK038] | Y
RGRRGP ([2Abz]RGRRGP[Tyr(3-NO2)]-NH2) [LNK048] | N
RGRKPQPLVD ([2Abz]RGRKPQPLVD[Tyr(3-NO2)]-NH2) [LNK039] | Y
RGRKPYMLQG ([2Abz]RGRKPYMLQG[Tyr(3-NO2)]-NH2) [LNK035] | Y
RGRKSQPLVD ([2Abz]RGRKSQPLVD[Tyr(3-NO2)]-NH2) [LNK041] | N
RGRKPY-Nle-LQG ([2Abz]RGRKPY[Nle]LQG[Tyr(3-NO2)]-NH2) [LNK036] | Y
RGRKSPQPLVD ([2Abz]RGRKSPQPLVD[Tyr(3-NO2)]-NH2) [LNK040] | Y
SGRVAPYMLQG ([2Abz]SGRVAPYMLQG[Tyr(3-NO2)]-NH2) [LNK042] | Y
RGRKSPYMLQG ([2Abz]RGRKSPYMLQG[Tyr(3-NO2)]-NH2) [LNK037] | N
RGRKSPANLVG ([2Abz]RGRKSPANLVG[Tyr(3-NO2)]-NH2) [LNK034] | Y
SGRVAPQPLVD (not fully specified (N-terminus, C-terminus)) [LNK046] | Y
RGRKVANLVG ([2Abz]RGRKVANLVG[Tyr(3-NO2)]-NH2) [LNK031] | Y
